Target: recombinant human 11 β-HSD1 (Homo sapiens)
Construct: made in house; host or cells: E. coli
Sequence (P28845 whole entry): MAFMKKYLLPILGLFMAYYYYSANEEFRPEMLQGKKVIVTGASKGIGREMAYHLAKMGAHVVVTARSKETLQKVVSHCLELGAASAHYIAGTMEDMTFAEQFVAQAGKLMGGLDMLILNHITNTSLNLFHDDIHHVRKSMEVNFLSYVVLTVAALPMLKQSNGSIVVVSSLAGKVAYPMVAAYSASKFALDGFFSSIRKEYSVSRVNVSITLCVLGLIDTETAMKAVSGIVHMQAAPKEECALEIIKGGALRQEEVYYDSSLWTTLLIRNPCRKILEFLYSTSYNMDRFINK
Test: 11 β-HSD1 SPA Assay (Scintillation Proximity Assay)
Type: biochemical
List of IC50 values.

Below are worked cases with known answers.
- compound: "CC(C)(Oc1ccccc1OC(F)(F)F)C(=O)N[C@H]1C[C@H]2CC[C@@H](C1)N2c1ccc(C(=O)NCC(F)(F)F)cn1"
  observed value: "< 0.2 µM"
- compound: "CS(=O)(=O)c1ccc(N2[C@@H]3CC[C@H]2C[C@@H](NC(=O)C2(c4ccc(F)c(C(F)(F)F)c4)CC2)C3)nc1"
  observed value: "< 2 µM"
- compound: "CC(C)(Oc1cc(F)c(Cl)cc1Cl)C(=O)N[C@H]1C[C@H]2CC[C@@H](C1)N2c1ccc(C(N)=O)cn1"
  observed value: "< 0.2 µM"
- compound: "CC(Oc1ccccc1)C(=O)N[C@H]1C[C@H]2CC[C@@H](C1)N2c1ccc(C(=O)NC2CC2)cn1 (stereo partly shown)"
  observed value: "< 2 µM"
- compound: "CC(C)(Oc1cc(OCCO)c(Cl)cc1Cl)C(=O)NC1CC2CCC(C1)N2c1ccc(C(=O)NC2CC2(F)F)cn1 (stereo not shown)"
  observed value: "< 0.2 µM"

Would you kindly share the measured IC50 for CC(C)(Oc1ccc(F)c(F)c1)C(=O)N[C@H]1C[C@H]2CC[C@@H](C1)N2c1ccc(S(C)(=O)=O)cn1 ?
< 2 µM

Would you kindly share the measured IC50 for CC(C)(Oc1ccc(Cl)cc1C(F)F)C(=O)N[C@H]1C[C@H]2CC[C@@H](C1)N2c1ccc(C(=O)NCC(F)(F)F)cn1 ?
< 0.2 µM
